TEST: log P by HPLC (EEC Directive 79/831 Annex V.A8), reversed-phase C18
Assay type: physicochemical
MEASUREMENT_SETUP: reversed-phase C18 HPLC column; method [a]: LC-MS, acidic range, pH 2.7, 0.1% aqueous formic acid/acetonitrile, linear gradient 10% to 95% acetonitrile
MEASURED_ENDPOINT: chromatographic logP

I: CC(C)(C)C(O)(COc1cncnc1)c1cncs1 (centres unmarked)
II: CC(C)(C)C(O)(COc1cccnc1)c1cncs1 (centres unmarked)
Ask | Quick check, higher chromatographic logP between I and II ? // caller expects the label of the chosen entry
Reply | I
(I: 1.4, II: 0.89)
